Test system: passive cutaneous reaction mediated by Ig G antibodies
METHOD SUMMARY: Passive cutaneous anaphylaxis in the rat (PCR), Ig G mediated, inhibition after oral administration
Type: in vivo
CONDITIONS: 1 mg/kg, male Wistar rats
EXPERIMENTAL ENDPOINT: inhibition in vivo at 1 mg/kg (%)

{"CHEMICAL STRUCTURE": "CCOC(=O)c1cnc2n(c1=O)-c1ccccc1N(C(=O)OCC)C2", "REPORTED VALUE": 31}
{"CHEMICAL STRUCTURE": "CCOC(=O)c1cnc2n(c1=O)-c1ccccc1N(C(=O)C1CCCC1)C2", "REPORTED VALUE": 5.4}
{"CHEMICAL STRUCTURE": "CCOC(=O)c1cnc2n(c1=O)-c1ccccc1N(C(=O)CC)C2", "REPORTED VALUE": 8.2}
{"CHEMICAL STRUCTURE": "CCOC(=O)c1cnc2n(c1=O)-c1ccccc1N(C(C)=O)C2", "REPORTED VALUE": 18.5}
{"CHEMICAL STRUCTURE": "CCOC(=O)c1cnc2n(c1=O)-c1ccccc1N(C=O)C2", "REPORTED VALUE": 4.1}
